B1: tRNA (parent)
chain: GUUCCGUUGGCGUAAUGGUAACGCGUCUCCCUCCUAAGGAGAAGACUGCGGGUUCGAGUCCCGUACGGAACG

variants of: B1; assay: yeast fitness relative to wild type (ratio to wild type); higher = fitter; tRNA-Arg(CCU), competitive growth, 37 C, YPD
This sample holds only a part of the variants without activity.
Record form. Attribute: yeast fitness. Fill in for each entry.

Task: Recorded yeast fitness of U3A A20U C29G A40U G50C , please.
Result: ≤ 0.5

Task: Recorded yeast fitness of G17C C29A A36G A43U , please.
Result: ≤ 0.5

Task: Recorded yeast fitness of C4G A20G C22G C33U A36C A40U , please.
Result: ≤ 0.5

Task: Recorded yeast fitness of U7A A20C U26A , please.
Result: ≤ 0.5

Task: Recorded yeast fitness of G18C C49G C61G , please.
Result: ≤ 0.5

Task: Recorded yeast fitness of U8A C29A U54C , please.
Result: ≤ 0.5

Task: Recorded yeast fitness of C34G C49G U54C C61U A69G , please.
Result: ≤ 0.5

Task: Recorded yeast fitness of A15U C22U G39C , please.
Result: ≤ 0.5

Task: Recorded yeast fitness of C34U G39C A69U , please.
Result: ≤ 0.5

Task: Recorded yeast fitness of C11G C31A G39A , please.
Result: ≤ 0.5

Task: Recorded yeast fitness of G18C C30U C31G G50A , please.
Result: ≤ 0.5

Task: Recorded yeast fitness of C34U A36U G52C A69U , please.
Result: ≤ 0.5

Task: Recorded yeast fitness of U3A A14U G41C G67C , please.
Result: ≤ 0.5

Task: Recorded yeast fitness of A14U U35C A37U , please.
Result: ≤ 0.5

Task: Recorded yeast fitness of C30G A57G G63A , please.
Result: ≤ 0.5

Task: Recorded yeast fitness of U8C C29A A65C C66G , please.
Result: ≤ 0.5

Task: Recorded yeast fitness of A15C G17A A45C , please.
Result: ≤ 0.5

Task: Recorded yeast fitness of A15G G23C C30A A42C G44A G51C , please.
Result: ≤ 0.5

Task: Recorded yeast fitness of C4G U16A U35A C61G , please.
Result: 0.882

Task: Recorded yeast fitness of C4G C30A , please.
Result: 0.679

Task: Recorded yeast fitness of U7C G68C , please.
Result: 0.876

Task: Recorded yeast fitness of G38A A65C , please.
Result: 0.707

Task: Recorded yeast fitness of A20C C30U , please.
Result: 0.903

Task: Recorded yeast fitness of A20G C24G C30G , please.
Result: ≤ 0.5

Task: Recorded yeast fitness of G9A G48A G50C A65G C66U , please.
Result: ≤ 0.5

Task: Recorded yeast fitness of U16G C62U A70C , please.
Result: 0.565

Task: Recorded yeast fitness of U16A G48A , please.
Result: 0.896

Task: Recorded yeast fitness of A15U A20G , please.
Result: 0.772

Task: Recorded yeast fitness of A20G U32G , please.
Result: 0.672

Task: Recorded yeast fitness of U2C C11A C22G G41A A43C G51C , please.
Result: ≤ 0.5

Task: Recorded yeast fitness of C24U C34G G63U A70U , please.
Result: 0.542

Task: Recorded yeast fitness of C4A U7G G12C C60U C62G , please.
Result: ≤ 0.5

Task: Recorded yeast fitness of G12C C46U , please.
Result: 0.815

Task: Recorded yeast fitness of G25C C29U A45C G58A , please.
Result: ≤ 0.5

Task: Recorded yeast fitness of A21G C22G G25A G63A , please.
Result: ≤ 0.5

Task: Recorded yeast fitness of A36C G52A , please.
Result: ≤ 0.5

Task: Recorded yeast fitness of C5U G12A C60G , please.
Result: ≤ 0.5

Task: Recorded yeast fitness of A14C G18A C22G A57U C61G , please.
Result: ≤ 0.5

Task: Recorded yeast fitness of U19G A57G C66U , please.
Result: ≤ 0.5

Task: Recorded yeast fitness of U7C G25A U28A G48C A70C , please.
Result: ≤ 0.5

Task: Recorded yeast fitness of C27U U35G A57C A65C A70U , please.
Result: ≤ 0.5

Task: Recorded yeast fitness of G12U U54C , please.
Result: 0.59

Task: Recorded yeast fitness of C5G C61G A65C , please.
Result: ≤ 0.5

Task: Recorded yeast fitness of G12A U59C , please.
Result: 0.993

Task: Recorded yeast fitness of U2A G10A G17C U35C C55G , please.
Result: ≤ 0.5

Task: Recorded yeast fitness of A36G C55A , please.
Result: 0.729

Task: Recorded yeast fitness of C11U A15G C27G , please.
Result: 0.544

Task: Recorded yeast fitness of C31A C49G G56C A70U , please.
Result: ≤ 0.5

Task: Recorded yeast fitness of C11G U16A U26A C34U C55G , please.
Result: ≤ 0.5

Task: Recorded yeast fitness of U26G C34G A37C C66A , please.
Result: ≤ 0.5

Task: Recorded yeast fitness of G25A C29U C66U , please.
Result: 0.747

Task: Recorded yeast fitness of C49G G58A , please.
Result: 0.844

Task: Recorded yeast fitness of U3A C4U U7A C24U A70U , please.
Result: ≤ 0.5

Task: Recorded yeast fitness of C22A U28C A42G U47A , please.
Result: 0.64

Task: Recorded yeast fitness of U2C C4U A70C , please.
Result: 0.733

Task: Recorded yeast fitness of G48A C60U A70U , please.
Result: 0.71

Task: Recorded yeast fitness of G9U G23C A45U G51C , please.
Result: ≤ 0.5
